- study target: ULK1A (Homo sapiens)
- Construct: purchased in-house DSF kinase panel (SGC-style construct names; the trailing letter is the construct ID)
- Sequence (O75385 1-283): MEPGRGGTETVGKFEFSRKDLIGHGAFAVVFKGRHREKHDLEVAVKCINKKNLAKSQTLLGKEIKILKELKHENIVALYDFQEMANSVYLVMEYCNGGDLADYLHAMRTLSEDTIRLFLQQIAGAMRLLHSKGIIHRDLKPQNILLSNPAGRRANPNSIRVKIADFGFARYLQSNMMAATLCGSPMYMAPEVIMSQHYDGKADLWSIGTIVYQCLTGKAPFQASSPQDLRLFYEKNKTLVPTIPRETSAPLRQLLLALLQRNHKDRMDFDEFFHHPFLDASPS
- test method notes: DSF Tm panel
- Format: binding
- run conditions: 10 μM compound
Items are presented alongside their recorded ΔTm at 10 µM.
Give a bare numeral; the unit °C is implied.

// below: answered compounds
• C[C@H](NC(=O)Nc1ccc2cc1OCCOCCNc1ccn3ncc-2c3n1)c1ccccc1 [compound 34] = -0.1
• COc1ccc(CNC(=O)Nc2ccc3cc2OCCOCCNc2ccn4ncc-3c4n2)cc1 [compound 31] = 0.6

Q) Sample COc1cc(CNC(=O)Nc2ccc3cc2OCCOCCNc2ccn4ncc-3c4n2)ccc1F [compound 33] — what was its ΔTm at 10 µM?
A) 0.2

Q) Need ΔTm at 10 µM of O=C(NCc1ccc(Cl)cc1)Nc1ccc2cc1OCCOCCNc1ccn3ncc-2c3n1 [compound 19] , thanks.
A) 0.4

Q) Requested field: ΔTm at 10 µM. Item: COc1ccc(CNC(=O)Nc2ccc3cc2OCCOCCNc2ccn4ncc-3c4n2)cc1F [compound 32]
A) 0.5

Q) Entry O=C(NCc1cccc(Cl)c1)Nc1ccc2cc1OCCOCCNc1ccn3ncc-2c3n1 [compound 18] has what ΔTm at 10 µM?
A) 0.3

Q) Look up ΔTm at 10 µM: O=C(NCc1ccc(Cl)cc1F)Nc1ccc2cc1OCCOCCNc1ccn3ncc-2c3n1 [compound 21]
A) 0.2

====

molecules and their reported ΔTm at 10 µM
- study target: CLK1A (Homo sapiens)
- Construct: purchased in-house DSF kinase panel (SGC-style construct names; the trailing letter is the construct ID)
- Sequence (P49759 148-484): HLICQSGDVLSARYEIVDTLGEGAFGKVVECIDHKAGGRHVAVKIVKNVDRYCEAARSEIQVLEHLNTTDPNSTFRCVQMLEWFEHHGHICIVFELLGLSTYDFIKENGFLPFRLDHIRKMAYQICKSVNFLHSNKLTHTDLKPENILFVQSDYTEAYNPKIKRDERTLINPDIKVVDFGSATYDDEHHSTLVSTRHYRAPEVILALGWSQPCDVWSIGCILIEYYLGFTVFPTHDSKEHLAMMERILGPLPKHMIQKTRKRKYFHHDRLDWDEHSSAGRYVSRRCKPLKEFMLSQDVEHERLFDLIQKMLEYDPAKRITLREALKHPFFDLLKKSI
- test method notes: DSF Tm panel
- Type: binding
- run conditions: 10 μM compound

Below are worked cases with known answers.
* O=C(NCc1cccc(Cl)c1)Nc1ccc2cc1OCCOCCNc1ccn3ncc-2c3n1 | 2.9 °C
* COc1ccc(CNC(=O)Nc2ccc3cc2OCCOCCNc2ccn4ncc-3c4n2)cc1 | 2.8 °C
* Cc1cc(Br)ccc1CNC(=O)Nc1ccc2cc1OCCOCCNc1ccn3ncc-2c3n1 | 1 °C
* O=C(NCc1ccc(Cl)cc1Cl)Nc1ccc2cc1OCCOCCNc1ccn3ncc-2c3n1 | 2.1 °C
* C[C@H](NC(=O)Nc1ccc2cc1OCCOCCNc1ccn3ncc-2c3n1)c1ccccc1 | 3.1 °C
* CN1CCN(C(=O)Nc2ccc3cc2OCCOCCNc2ccn4ncc-3c4n2)CC1 | 2.9 °C
* COc1cccc(CNC(=O)Nc2ccc3cc2OCCOCCNc2ccn4ncc-3c4n2)c1 | 2.5 °C
* O=C(NCc1ccc(Cl)cc1)Nc1ccc2cc1OCCOCCNc1ccn3ncc-2c3n1 | 2.1 °C
* Cc1cc(Cl)ccc1CNC(=O)Nc1ccc2cc1OCCOCCNc1ccn3ncc-2c3n1 | 2.6 °C
* O=C(NCc1ccccc1Cl)Nc1ccc2cc1OCCOCCNc1ccn3ncc-2c3n1 | 4.5 °C

Q) What ΔTm at 10 µM value was documented for this molecule, COc1ccc(CNC(=O)Nc2ccc3cc2OCCOCCNc2ccn4ncc-3c4n2)cc1F ?
A) 2.7 °C

Q) Record request: ΔTm at 10 µM value, item Cc1ccc(F)cc1CNC(=O)Nc1ccc2cc1OCCOCCNc1ccn3ncc-2c3n1
A) 2.1 °C

Q) Which ΔTm at 10 µM value is on record for O=C(NCc1ccccc1)Nc1ccc2cc1OCCOCCNc1ccn3ncc-2c3n1 ?
A) 3.4 °C

====

- study target: STK4 (STK4A) (Homo sapiens)
- Construct: purchased in-house DSF kinase panel (SGC-style construct names; the trailing letter is the construct ID)
- Sequence (Q13043 1-311): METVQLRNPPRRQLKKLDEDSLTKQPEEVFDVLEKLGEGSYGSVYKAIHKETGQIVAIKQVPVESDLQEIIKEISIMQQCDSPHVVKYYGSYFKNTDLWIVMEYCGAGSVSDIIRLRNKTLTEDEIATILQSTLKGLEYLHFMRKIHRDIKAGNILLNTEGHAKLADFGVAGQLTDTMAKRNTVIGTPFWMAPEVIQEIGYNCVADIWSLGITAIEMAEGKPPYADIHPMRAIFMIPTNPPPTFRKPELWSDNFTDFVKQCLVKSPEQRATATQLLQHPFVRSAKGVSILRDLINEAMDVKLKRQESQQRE
- test method notes: DSF Tm panel
- Assay type: binding
- run conditions: 10 μM compound
Each record here notes measured ΔTm at 10 µM.
Enter your answer as a number in °C; do not include the unit.

• C[C@H](NC(=O)Nc1ccc2cc1OCCOCCNc1ccn3ncc-2c3n1)c1ccccc1 [compound 34] = 2.7

Q) Fill in the recorded ΔTm at 10 µM for this compound, with STK4 (STK4A) (Homo sapiens) as test system: O=C(NCc1ccccc1Cl)Nc1ccc2cc1OCCOCCNc1ccn3ncc-2c3n1 [compound 17]
A) 4.1

Q) Request: ΔTm at 10 µM, test system STK4 (STK4A) (Homo sapiens), entry COc1ccccc1CNC(=O)Nc1ccc2cc1OCCOCCNc1ccn3ncc-2c3n1 [compound 29]
A) 2.6

Q) Entry O=C(NCc1ccc(Cl)cc1Cl)Nc1ccc2cc1OCCOCCNc1ccn3ncc-2c3n1 [compound 20] , system STK4 (STK4A) (Homo sapiens): what ΔTm at 10 µM was measured?
A) 3.6

====

Listing of recorded ΔTm at 10 µM by entry.
- study target: STK6A (Homo sapiens)
- Construct: purchased in-house DSF kinase panel (SGC-style construct names; the trailing letter is the construct ID)
- Sequence (O14965 122-403): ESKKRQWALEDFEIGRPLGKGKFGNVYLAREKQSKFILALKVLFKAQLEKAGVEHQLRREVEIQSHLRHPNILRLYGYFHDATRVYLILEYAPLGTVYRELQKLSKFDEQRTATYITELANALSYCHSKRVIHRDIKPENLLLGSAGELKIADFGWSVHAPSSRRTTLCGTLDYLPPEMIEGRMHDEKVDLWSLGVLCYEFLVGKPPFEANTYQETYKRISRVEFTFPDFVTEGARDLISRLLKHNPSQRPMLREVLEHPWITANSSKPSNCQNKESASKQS
- test method notes: DSF Tm panel
- Type: binding
- run conditions: 10 μM compound
Answer format reminder: number followed by unit.

Answered examples (4):
- O=C(NCc1ccc(Cl)cc1F)Nc1ccc2cc1OCCOCCNc1ccn3ncc-2c3n1: 6.9 °C
- Cc1cc(Cl)ccc1CNC(=O)Nc1ccc2cc1OCCOCCNc1ccn3ncc-2c3n1: 5.6 °C
- COc1ccc(CNC(=O)Nc2ccc3cc2OCCOCCNc2ccn4ncc-3c4n2)cc1: 8 °C
- COc1cccc(CNC(=O)Nc2ccc3cc2OCCOCCNc2ccn4ncc-3c4n2)c1: 7.4 °C

Q) Please tell me: ΔTm at 10 µM of O=C(NCc1ccccc1)Nc1ccc2cc1OCCOCCNc1ccn3ncc-2c3n1 , system STK6A (Homo sapiens)?
A) 7.5 °C

Q) Provide the documented ΔTm at 10 µM with STK6A (Homo sapiens) as the system for C[C@H](NC(=O)Nc1ccc2cc1OCCOCCNc1ccn3ncc-2c3n1)c1ccccc1
A) 7.7 °C

Q) Lab note: need ΔTm at 10 µM with STK6A (Homo sapiens) for entry O=C(NCc1cccc(Cl)c1)Nc1ccc2cc1OCCOCCNc1ccn3ncc-2c3n1 , please look it up.
A) 7.3 °C

Q) Please state recorded ΔTm at 10 µM (tested on STK6A (Homo sapiens)) of Cc1ccc(F)cc1CNC(=O)Nc1ccc2cc1OCCOCCNc1ccn3ncc-2c3n1
A) 6.4 °C

Q) Field: ΔTm at 10 µM (STK6A (Homo sapiens)). Entry: COc1cc(CNC(=O)Nc2ccc3cc2OCCOCCNc2ccn4ncc-3c4n2)ccc1F
A) 9.9 °C

Q) Requested read-out ΔTm at 10 µM, target or system STK6A (Homo sapiens), entry COc1ccc(CNC(=O)Nc2ccc3cc2OCCOCCNc2ccn4ncc-3c4n2)cc1F
A) 7.6 °C

Q) # returns recorded ΔTm at 10 µM (system: STK6A (Homo sapiens)) for O=C(NCc1ccc(Cl)cc1)Nc1ccc2cc1OCCOCCNc1ccn3ncc-2c3n1
A) 7.1 °C

====

- study target: GPRK5A (Homo sapiens)
- Construct: purchased in-house DSF kinase panel (SGC-style construct names; the trailing letter is the construct ID)
- Sequence (P34947 186-514): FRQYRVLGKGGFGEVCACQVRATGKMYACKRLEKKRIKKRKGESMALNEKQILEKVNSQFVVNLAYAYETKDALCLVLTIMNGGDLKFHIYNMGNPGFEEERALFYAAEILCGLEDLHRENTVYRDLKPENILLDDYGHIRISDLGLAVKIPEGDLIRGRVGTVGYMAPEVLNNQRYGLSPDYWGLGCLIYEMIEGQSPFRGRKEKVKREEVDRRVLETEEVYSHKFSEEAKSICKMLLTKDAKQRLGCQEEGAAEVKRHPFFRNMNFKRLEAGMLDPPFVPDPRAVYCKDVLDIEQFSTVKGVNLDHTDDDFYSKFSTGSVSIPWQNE
- test method notes: DSF Tm panel
- Type: binding
- run conditions: 10 μM compound
measured quantity: ΔTm at 10 µM (°C)
Use °C as the unit, but write only the number.

* COc1ccc(CNC(=O)Nc2ccc3cc2OCCOCCNc2ccn4ncc-3c4n2)cc1 | 0.9
* O=C(NCc1ccc(Cl)cc1Cl)Nc1ccc2cc1OCCOCCNc1ccn3ncc-2c3n1 | 1.3
* COc1ccc(CNC(=O)Nc2ccc3cc2OCCOCCNc2ccn4ncc-3c4n2)cc1F | 0.7

Q) Recorded ΔTm at 10 µM of O=C(NCc1ccccc1C(F)(F)F)Nc1ccc2cc1OCCOCCNc1ccn3ncc-2c3n1 , please.
A) 0.2

====

- study target: MAPKAPK2A (Homo sapiens, UniProt P49137)
- Construct: purchased in-house DSF kinase panel (SGC-style construct names; the trailing letter is the construct ID)
- Sequence (P49137 64-325): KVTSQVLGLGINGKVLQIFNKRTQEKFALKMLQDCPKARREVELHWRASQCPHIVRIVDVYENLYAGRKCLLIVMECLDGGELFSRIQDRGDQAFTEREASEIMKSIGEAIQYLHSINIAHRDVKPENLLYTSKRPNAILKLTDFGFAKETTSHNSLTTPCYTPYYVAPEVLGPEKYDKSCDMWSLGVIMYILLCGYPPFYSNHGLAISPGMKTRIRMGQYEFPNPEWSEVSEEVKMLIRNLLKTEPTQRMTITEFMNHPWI
- test method notes: DSF Tm panel
- Assay type: binding
- run conditions: 10 μM compound
measured quantity: ΔTm at 10 µM (°C)
A number alone suffices; assume °C.

Some compounds with recorded ΔTm at 10 µM:
- COc1ccccc1CNC(=O)Nc1ccc2cc1OCCOCCNc1ccn3ncc-2c3n1: 0.2
- COc1ccc(CNC(=O)Nc2ccc3cc2OCCOCCNc2ccn4ncc-3c4n2)cc1: 0.2
- C[C@H](NC(=O)Nc1ccc2cc1OCCOCCNc1ccn3ncc-2c3n1)c1ccccc1: 0.1
- Cc1ccc(F)cc1CNC(=O)Nc1ccc2cc1OCCOCCNc1ccn3ncc-2c3n1: 0.1
- O=C(NCc1ccc(C(F)(F)F)cc1)Nc1ccc2cc1OCCOCCNc1ccn3ncc-2c3n1: 0.4

Q) Look up ΔTm at 10 µM: COc1cc(CNC(=O)Nc2ccc3cc2OCCOCCNc2ccn4ncc-3c4n2)ccc1F
A) 0.1
